In this section we review reported pIC50 values for a set of compounds.
Tested on: human neuroblastoma strains SH-SY-5Y and SK-N-BE Bep 75
run description: Measurement of apoptosis (NGF-induced, cell death detection ELISA)
Type: cell-based
test parameters: SH-SY5Y, NGF 10 ng/ml, 48 h (SH-SY-5Y) or 24 h (SK-N-BE Bep 75), cell strain not given, read-out: IC50 of NGF-induced apoptosis inhibition
pIC50: −log10 of the molar value.
test readout: pIC50

>>> df
                            chemical_smiles                              study_target  meas_value
0  O=C(CN1CC2CCC(C1)N2c1ccc(C(F)(F)F)cn1)N1CC=C(c2cccc(C(F)(F)F)c2)CC1  human neuroblastoma strains SH-SY-5Y and SK-N-BE Bep 75        8.88
1  O=C(O)c1ccc(N2C3CCC2CN(CC(=O)N2CC=C(c4ccc(Cl)c(C(F)(F)F)c4)CC2)C3)nc1  human neuroblastoma strains SH-SY-5Y and SK-N-BE Bep 75        9.66
2  O=C(CN1CC2CCC(C1)N2c1ccc(C(F)(F)F)cn1)N1CC=C(c2ccc(Cl)c(C(F)(F)F)c2)CC1  human neuroblastoma strains SH-SY-5Y and SK-N-BE Bep 75        8.65
3  O=C(CN1C2CCC1CN(c1cnccn1)C2)N1CC=C(c2cccc(C(F)(F)F)c2)CC1  human neuroblastoma strains SH-SY-5Y and SK-N-BE Bep 75       10.17
4  O=C(CN1CC2CCC(C1)N2c1cccnc1)N1CC=C(c2ccc(Cl)c(C(F)(F)F)c2)CC1  human neuroblastoma strains SH-SY-5Y and SK-N-BE Bep 75       10.06
5  O=C(CN1CC2CCC(C1)N2c1ncc(F)cn1)N1CC=C(c2ccc(Cl)c(C(F)(F)F)c2)CC1  human neuroblastoma strains SH-SY-5Y and SK-N-BE Bep 75        9.68

###

study target: p75^NTR receptor (Homo sapiens, UniProt P08138)
Sequence (P08138 29-427): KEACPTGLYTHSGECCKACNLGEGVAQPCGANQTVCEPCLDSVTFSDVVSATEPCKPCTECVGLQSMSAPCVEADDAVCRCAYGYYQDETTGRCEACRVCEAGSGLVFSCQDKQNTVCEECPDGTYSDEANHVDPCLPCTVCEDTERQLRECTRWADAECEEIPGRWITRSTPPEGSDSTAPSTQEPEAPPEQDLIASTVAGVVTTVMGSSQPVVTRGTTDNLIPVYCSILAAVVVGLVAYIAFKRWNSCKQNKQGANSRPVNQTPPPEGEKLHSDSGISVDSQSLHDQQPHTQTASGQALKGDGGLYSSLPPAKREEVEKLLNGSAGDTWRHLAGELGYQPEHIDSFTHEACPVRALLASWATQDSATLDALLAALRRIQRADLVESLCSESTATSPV
run description: p75NTR receptor dimerisation independently of its ligand (soluble p75NTR-alkaline phosphatase binding to SK-N-BE Bep 75 cells)
Design: the whole form of the human p75^NTR receptor; expressed in transfected cells; host or cells: SK-N-BE Bep 75 cells (membrane receptor); HEK293 cells transfected for 48 h (secreted soluble fusion)
pIC50: −log10 of the molar value.
In this section we review reported pIC50 values for a set of compounds.
test readout: pIC50

>>> print(df.to_string())
                            chemical_smiles  meas_value
0  O=C(O)c1ccc(N2C3CCC2CN(CC(=O)N2CC=C(c4ccc(Cl)c(C(F)(F)F)c4)CC2)C3)nc1        9.85
1  O=C(CN1C2CCC1CN(c1cnccn1)C2)N1CC=C(c2cccc(C(F)(F)F)c2)CC1       10.30
2  O=C(CN1CC2CCC(C1)N2c1ncc(F)cn1)N1CC=C(c2ccc(Cl)c(C(F)(F)F)c2)CC1        9.70
3  O=C(CN1CC2CCC(C1)N2c1cccnc1)N1CC=C(c2ccc(Cl)c(C(F)(F)F)c2)CC1        9.64
4  COC(=O)c1ccc(N2C3CCC2CN(CC(=O)N2CC=C(c4ccc(Cl)c(C(F)(F)F)c4)CC2)C3)nc1        8.01
5  COC(=O)c1cccc(C2=CCCN(C(=O)CN3CC4CCC(C3)N4c3ncc(F)cn3)C2)c1        8.68
6  O=C(CN1CC2CCC(C1)N2c1ccc(C(F)(F)F)cn1)N1CC=C(c2cccc(C(F)(F)F)c2)CC1        7.63
7  O=C(CN1CC2CCC(C1)N2c1ccc(C(F)(F)F)cn1)N1CC=C(c2ccc(Cl)c(C(F)(F)F)c2)CC1        9.17

###

In this section we review reported IC50 values for a set of compounds.
study target: p75^NTR receptor (Homo sapiens)
run description: Binding of 125I NGF to the p75NTR receptor on SK-N-BE Bep 75 cell suspension
Parameters: the whole form of the human p75^NTR receptor; expressed in transfected cells; host or cells: SK-N-BE (human neuroblastoma), clone Bep 75, hygromycin selection
test readout: IC50

>>> print(df.to_string())
                            chemical_smiles                     study_target  test_readout  meas_value
0  O=C(CN1CC2CCC(C1)N2c1ccc(C(F)(F)F)cn1)N1CC=C(c2cccc(C(F)(F)F)c2)CC1  p75^NTR receptor (Homo sapiens)          IC50     1.35 nM
1  O=C(CN1CC2CCC(C1)N2c1ccc(C(F)(F)F)cn1)N1CC=C(c2ccc(Cl)cc2)CC1  p75^NTR receptor (Homo sapiens)          IC50     0.29 nM
2  O=C(CN1CC2CCC(C1)N2c1ncccn1)N1CC=C(c2ccc(Cl)cc2)CC1  p75^NTR receptor (Homo sapiens)          IC50     0.18 nM
3  O=C(CN1CC2CCC(C1)N2c1ncc(F)cn1)N1CC=C(c2ccc(Cl)c(C(F)(F)F)c2)CC1  p75^NTR receptor (Homo sapiens)          IC50     0.98 nM
